- Test system: A549-TUBA1B-RELA
- test.protocol: phenotypically active (imaging signature differs from DMSO and reproducible) at any of 0.3-9 uM (binary (1 = active, 0 = inactive)); higher = active
- test.parameters: treatment time: 24 h
Can you tell me phenotypically active for the items I'm about to list?
Give bare numbers.

Here is how some compounds turned out for phenotypically active.
{"columns": ["compound", "phenotypically active"],
 "data": [
  ["C[N+](C)(C)CCOC(N)=O [Carbamoylcholine chloride]", 0],
  ["COc1ccc(C(C)=O)c(O)c1 [2'-Hydroxy-4'-Methoxyacetophenone]", 0],
  ["COc1ccc2c3c(c(=O)n(C)c2c1OC)C=CC(C)(C)O3", 0],
  ["COc1ccc([C@@H]2CC(=O)c3c(O)cc(O)cc3O2)cc1O", 0]
]}

# return phenotypically active for each item in the list
1. CC(C)(C)NC[C@H](O)COc1nsnc1N1CCOCC1
2. O=C(OC12CC3CC(CC(C3)C1)C2)c1ccc(NCc2cc(O)ccc2O)cc1
3. COc1cc2ncnc(Nc3cccc(Br)c3)c2cc1OC
4. CN1C(CSCC(F)(F)F)Nc2cc(Cl)c(S(N)(=O)=O)cc2S1(=O)=O (configuration not stated) [polythiazide]
5. NS(=O)(=O)C#Cc1ccccc1

1: 0; 2: 1; 3: 1; 4: 0; 5: 0

Dear colleague, could you please provide phenotypically active for the compounds listed below?
1. COc1cc(N2CCN(C)CC2)ccc1Nc1nccc(-c2cn(C)c3cnccc23)n1
2. N#Cc1c(C2CCNCC2)cc(-c2c(O)cccc2OCC2CC2)nc1N

[1, 1]

Dear reader, for each entry below, please note its phenotypically active.
1. NNCCc1ccccc1
2. Fc1ccc([C@@H]2CCNC[C@H]2COc2ccc3c(c2)OCO3)cc1

1. 0
2. 1

Look at each compound and report its phenotypically active.
1. NS(=O)(=O)Cc1noc2ccccc12 [zonisamide]
2. CC(C)C(=O)Nc1ncc(-c2cc(C(F)F)nn2-c2c(Cl)cccc2Cl)s1
3. COc1ccc(CNC(=O)Nc2ncc([N+](=O)[O-])s2)cc1
4. FC(F)(F)c1ccc(/C=C/c2nc(COc3ccc(CCCCn4ccnn4)cc3)co2)cc1

1: 0; 2: 0; 3: 1; 4: 1

* * *

- Test system: HepG2-GM130-SQSTM1
- test.protocol: phenotypically active (imaging signature differs from DMSO and reproducible) at any of 0.3-9 uM (binary (1 = active, 0 = inactive)); higher = active
- test.parameters: treatment time: 24 h
Structures can show the parent of a compound that is named as a salt.
Log the outcome using a class from active, inactive

Field: outcome | Entry: CC(C)(C)NC[C@H](O)c1ccc(O)c(CO)c1
inactive

I'd appreciate the recorded outcome for CC(C)C1=CC2=CCC3[C@](C)(CCC[C@]3(C)C(=O)O)C2CC1 (stereo partly specified) from this test.
inactive

Please indicate how the test categorized O=c1cc(-c2ccc(O)cc2)oc2cc(O)cc(O)c12 .
active

Hi team, can someone confirm the assay call for CC(=O)N[C@@H](CC(=O)O)C(=O)N[C@@H](CCC(=O)O)C(=O)O ?
inactive

# fetch the recorded call for CC1=CC(=O)CC(C)(C)C1(O)/C=C/C(C)=C\C(=O)O (mixture of isomers) [(+/-)-2-cis-4-trans-Abscisic acid] here
inactive

Hi, sorry to bother you, what did the test record for COc1cc(N2CCC(O)CC2)ccc1Nc1cc(Nc2ccccc2S(=O)(=O)C(C)C)c2cc[nH]c2n1 [Mps1-IN-1 dihydrochloride] ?
active

* * *

- Tested on: A549-TP53BP1-CLTA
- test.protocol: phenotypically active (imaging signature differs from DMSO and reproducible) at any of 0.3-9 uM (binary (1 = active, 0 = inactive)); higher = active
- test.parameters: treatment time: 24 h
Entry note: the call must match one of t = active, f = inactive

{"columns": ["molecule", "class.assignment"],
 "data": [
  ["CC[N+](CC)(CC)CCOc1cccc(OCC[N+](CC)(CC)CC)c1OCC[N+](CC)(CC)CC [gallamine-triethiodide]", "f"],
  ["Cc1c(F)cc(C(=O)NC2CC2)cc1-c1ccc(C(=O)NCC(C)(C)C)cn1 [losmapimod]", "f"],
  ["C#CCN(C)Cc1ccccc1 [pargyline]", "f"],
  ["COc1c(Nc2cc(C)[nH]n2)nc(Sc2ccc(S(=O)(=O)Cc3cccc([N+](=O)[O-])c3F)cc2F)nc1N1CCOCC1 [Centrinone]", "t"],
  ["NC(=O)c1cn(Cc2c(F)cccc2F)nn1 [rufinamide]", "f"],
  ["Cc1nc2c(O)cccc2c(=O)[nH]1", "f"]
]}

Could you please tell me the result logged for O=C1NCCCc2c1oc1ccc(O)cc21 in this assay?
f

For this molecule, state the assay outcome: CC(=O)[C@@]1(O)CC[C@H]2[C@@H]3C[C@H](C)C4=CC(=O)C=C[C@]4(C)[C@@]3(F)[C@@H](O)C[C@@]21C [fluorometholone]
t

For CCCS(=O)(=O)Nc1ccc(F)c(C(=O)c2c[nH]c3ncc(Cl)cc23)c1F , which call appears in the assay record?
t

* * *

What lowest phenotypically active concentration was measured for each of the following?
- System: HepG2-GM130-SQSTM1
- test.protocol: lowest phenotypically active concentration; higher = less potent
- test.parameters: treatment time: 24 h
Answers are plain numbers, in µM.

{"columns": ["cpd.smiles", "experimental.result"],
 "data": [
  ["Cc1cc(C)c(C)c(S(=O)(=O)Nc2ccc(N3CC[C@H](C(=O)O)C3)c3ccccc23)c1C", 9],
  ["CC/C(=C(\\CC)c1ccc(O)c(CN(CC)CC)c1)c1ccc(O)c(CN(CC)CC)c1", 1],
  ["NC(=O)c1ccc(I)c([N+](=O)[O-])c1", 9]
]}

Switching to the query record.
Recorded lowest phenotypically active concentration for CC1=C(/C=C/C(C)=C\C=C\C(C)=C\C(=O)O)C(C)(C)CCC1 , please?
9

* * *

- Tested on: HepG2-TP53BP1-CLTA
- test.protocol: phenotypically active (imaging signature differs from DMSO and reproducible) at any of 0.3-9 uM (binary (1 = active, 0 = inactive)); higher = active
- test.parameters: treatment time: 24 h
Please provide measured phenotypically active for the entries that follow.

These recorded examples may help you get a feel for the data.
{"columns": ["molecule", "phenotypically active"],
 "data": [
  ["COc1ccccc1-c1c[nH]c2ncc(-c3cncc(C(=O)N(C)C)c3)cc12", "1 (active)"],
  ["CS(=O)(=O)OCCCCOS(C)(=O)=O [busulfan]", "0 (inactive)"],
  ["COc1cc2c(cc1OC)C(=O)C(CC1CCN(Cc3ccccc3)CC1)C2 (stereo unspecified) [donepezil]", "0 (inactive)"]
]}

Give one value of phenotypically active per listed molecule.
1. O=c1cc(-c2cccc3c2Sc2ccccc2S3)oc(N2CCOCC2)c1
2. Fc1ccccc1Nc1nc2nonc2nc1Nc1ccccc1F
3. CC[C@H](C)[C@H](NC(=O)OCc1ccccc1)C(=O)N[C@@H](CCC(=O)OC(C)(C)C)C(=O)N[C@@H](C)C(=O)N[C@H](C=O)CC(C)C

1. 1 (active)
2. 1 (active)
3. 1 (active)

* * *

Can you tell me phenotypically active for the items I'm about to list?
- Tested on: WPMY1-ACTB-RAB5A
- test.protocol: phenotypically active (imaging signature differs from DMSO and reproducible) at any of 0.3-9 uM (binary (1 = active, 0 = inactive)); higher = active
- test.parameters: treatment time: 24 h
Counter-ions that a name gives are not always drawn.

{"columns": ["compound", "target.of.assay", "phenotypically active"],
 "data": [
  ["O=C([C@H](Cc1cccc(C(F)(F)F)c1)NS(=O)(=O)c1cc(F)c2c(c1)CCNC2)N1CCCC1 [(S)-PFI 2 hydrochloride]", "WPMY1-ACTB-RAB5A", "0 (inactive)"],
  ["CC1Cc2ccccc2N1NC(=O)c1ccc(Cl)c(S(N)(=O)=O)c1 (stereo unspecified) [indapamide]", "WPMY1-ACTB-RAB5A", "0 (inactive)"],
  ["CCCCN1C[C@H](O)[C@@H](O)[C@H](O)[C@H]1CO [Miglustat hydrochloride]", "WPMY1-ACTB-RAB5A", "0 (inactive)"]
]}

Go through the list and state phenotypically active for each entry.
1. S=c1[nH]cnc2nc[nH]c12
2. Fc1ccccc1CNCc1ccc(-c2ccnc3[nH]ccc23)cc1 [OXA 06 dihydrochloride]
3. CCC(CC)(NC(=O)C(C)C)C(=O)N[C@@H](CCCNC(=N)N)C(=O)NC1(C(=O)NC(c2ccc(F)cc2)c2ccc(F)cc2)CCCC1
4. CCOC(=O)CCNc1cc(N2CCc3ccccc3CC2)nc(-c2cccnc2)n1
5. CCCSc1nc2c(c(=O)n1-c1ccccc1)SCC2

1. 0 (inactive)
2. 1 (active)
3. 0 (inactive)
4. 0 (inactive)
5. 0 (inactive)

* * *

- Test system: HepG2-CANX-COX4
- test.protocol: phenotypically active (imaging signature differs from DMSO and reproducible) at any of 0.3-9 uM (binary (1 = active, 0 = inactive)); higher = active
- test.parameters: treatment time: 24 h
Field 'call' accepts active, inactive

{"columns": ["compound", "class.assignment"],
 "data": [
  ["Cc1nc(Nc2ncc(C(=O)Nc3c(C)cccc3Cl)s2)cc(N2CCN(CCO)CC2)n1 [dasatinib]", "active"],
  ["C#C[C@]1(O)CC[C@H]2[C@@H]3CCC4=Cc5oncc5C[C@]4(C)[C@H]3CC[C@@]21C [danazol]", "inactive"],
  ["C[N+](C)(CCCCCC[N+](C)(C)CCCN1C(=O)c2ccccc2C1=O)CCCN1C(=O)c2ccccc2C1=O [W-84 dibromide]", "inactive"]
]}

// outcome(item) with item = COc1ccc(C2(CNC(=O)c3ccc(NC(=O)c4ccco4)cc3)CCOCC2)cc1
inactive

Hello, the source for this data is the supplement of paper PMC7411054, in case you need it.
